The measurements presented in this section are drawn from ChEMBL document CHEMBL1201862.

# Tested on: SNB-19
# Assay Summary: NCI tumour cell line growth inhibition, 48 h
Active and inactive are the calls of the source. Rule as the data show it: active = GI50 up to about 1.1 µM and inactive = higher.

Molecule	GI50
NC(=O)Nc1n[nH]c(-c2ccccc2)n1	> 100 µM (inactive)
Cc1c(C(=O)CC(=O)C(=O)Nc2cccc(C(F)(F)F)c2)[n+]([O-])c2ccccc2[n+]1[O-]	4.88 µM (inactive)
O=C(OCc1ccccc1[N+](=O)[O-])N1c2ccccc2[C@@]23O[C@]24CCC[C@H]3C#C/C=C\C#C[C@H]14	> 100 µM (inactive)
COc1ccc(-c2coc3c4c(ccc3c2=O)OCO4)cc1OC	29 µM (inactive)
O=C1C/C(=C\O)C(=O)c2ccccc2N1	> 100 µM (inactive)
COC(=O)[C@H](Cc1ccccc1)NP(=O)(OCCC#N)OCC1OC(n2cc(C)c(=O)[nH]c2=O)CC1N=[N+]=[N-] (stereo not given in full)	> 100 µM (inactive)
CC(C)(C)OC(=O)CC(NC(=O)OC(C)(C)C)C(=O)Oc1ccc([N+](=O)[O-])cc1 (stereo not given)	> 100 µM (inactive)
CCC(C#N)(c1ccccc1)N(CCc1ccccc1)C(=O)c1ccccc1 (stereo not given)	28 µM (inactive)
NC(=O)Cc1ncn(-c2ccccc2)n1	> 100 µM (inactive)
CC(Oc1ccc(Cl)cc1Cl)C(=O)NN1C(=O)CSC1c1ccccc1 (stereo not given)	47.6 µM (inactive)
CC(=O)OCC1OC(n2cnc3nc(Br)[nH]c(=O)c32)C(OC(C)=O)C1OC(C)=O (stereo not given)	> 100 µM (inactive)
Nc1nc2c(c(=O)[nH]1)C(c1ccc(Cl)cc1)C=C(c1ccccc1)N2 (stereo not given)	37.9 µM (inactive)
Cn1cc(NC(=O)Nc2cc(C(=O)Nc3cc(C(=O)Nc4ccc(S(=O)(=O)O)c5cc(S(=O)(=O)O)ccc45)n(C)c3)n(C)c2)cc1C(=O)Nc1cc(C(=O)Nc2ccc(S(=O)(=O)O)c3cc(S(=O)(=O)O)ccc23)n(C)c1	> 100 µM (inactive)
Cc1nc(C(N)=S)sc1C(=O)C/C(=N/N)C(=O)Nc1ccc(Cl)cc1	72.4 µM (inactive)
COc1ccc(-c2nc(N(C)C)c3ccccc3n2)cc1	17.7 µM (inactive)
O=c1cc(/C=C/c2ccccc2)c2ccc(O/C(=C\c3ccccc3)c3nc4ccccc4c(=O)o3)cc2o1	26 µM (inactive)
O=C1CC(NC2CC(=O)c3c(Br)sc(Br)c32)c2c(Br)sc(Br)c21 (stereo not given)	14.9 µM (inactive)
CCOC(=O)C(C(=S)Nc1ccccc1)c1nn2c(=O)cc(C)nc2s1 (stereo not given)	35.6 µM (inactive)
CCN(CC)CCC(=O)c1ccc(Oc2ccc(F)cc2)cc1	18 µM (inactive)
CC(=O)Nn1c(=S)[nH]c2ccccc21	> 100 µM (inactive)

---

# Tested on: NCI-H460
# Assay Summary: NCI tumour cell line growth inhibition, 48 h
Active and inactive are the calls of the source. No stated cut-off is given here; in the data, active = GI50 up to about 1.1 µM and inactive = higher.
Readout Type: GI50

> print(dat)
                                    molecule               result
 1  CC1C[C@@]2(c3ccccc3)C(=O)CCC[C@H]2N1 (some centres not stated)  > 100 µM (inactive)
 2  CCCCN1C(=O)NC(Cc2ccccc2)C1=O (configuration not stated)  > 100 µM (inactive)
 3  C/C(=C\COP(=O)(O)CP(=O)(O)O)CC/C=C(\C)CNc1ccccc1  > 100 µM (inactive)
 4    CCOC(=O)c1nnc2c(C(=O)OCC)c3ccccc3n2c1N   8.13 µM (inactive)
 5  CC(=O)O[C@H]1C[C@H]2C(=S)Nc3ccccc3C(=S)N2C1  > 100 µM (inactive)
 6  CN(C(=O)CC(=O)CP(=O)(c1ccccc1)c1ccccc1)c1ccccc1  > 100 µM (inactive)
 7           O/N=C1\SC(=N\O)/C(=N/O)S\C1=N/O  > 100 µM (inactive)
 8               CC(=O)Nc1cc2ccc(=O)oc2cc1Cl  > 100 µM (inactive)
 9  Brc1ccc2c(c1)C1C(CO2)C(c2ccccc2)=NN1c1ccccc1 (configuration not stated)  > 100 µM (inactive)
10  C/C(Cl)=N/OC(=O)Nc1ccc(F)c([N+](=O)[O-])c1   4.75 µM (inactive)
11  CC(=O)OCC1OC(n2cccnc2=O)C(OC(C)=O)C1OC(C)=O (configuration not stated)  > 100 µM (inactive)
12        COC1=CC(=O)c2c(ccc3ncnc(N)c23)C1=O   4.29 µM (inactive)
